Biological target: JAK2 (Homo sapiens, UniProt O60674)
Construct: purchased Carna Biosciences, Inc
Sequence (O60674 whole entry): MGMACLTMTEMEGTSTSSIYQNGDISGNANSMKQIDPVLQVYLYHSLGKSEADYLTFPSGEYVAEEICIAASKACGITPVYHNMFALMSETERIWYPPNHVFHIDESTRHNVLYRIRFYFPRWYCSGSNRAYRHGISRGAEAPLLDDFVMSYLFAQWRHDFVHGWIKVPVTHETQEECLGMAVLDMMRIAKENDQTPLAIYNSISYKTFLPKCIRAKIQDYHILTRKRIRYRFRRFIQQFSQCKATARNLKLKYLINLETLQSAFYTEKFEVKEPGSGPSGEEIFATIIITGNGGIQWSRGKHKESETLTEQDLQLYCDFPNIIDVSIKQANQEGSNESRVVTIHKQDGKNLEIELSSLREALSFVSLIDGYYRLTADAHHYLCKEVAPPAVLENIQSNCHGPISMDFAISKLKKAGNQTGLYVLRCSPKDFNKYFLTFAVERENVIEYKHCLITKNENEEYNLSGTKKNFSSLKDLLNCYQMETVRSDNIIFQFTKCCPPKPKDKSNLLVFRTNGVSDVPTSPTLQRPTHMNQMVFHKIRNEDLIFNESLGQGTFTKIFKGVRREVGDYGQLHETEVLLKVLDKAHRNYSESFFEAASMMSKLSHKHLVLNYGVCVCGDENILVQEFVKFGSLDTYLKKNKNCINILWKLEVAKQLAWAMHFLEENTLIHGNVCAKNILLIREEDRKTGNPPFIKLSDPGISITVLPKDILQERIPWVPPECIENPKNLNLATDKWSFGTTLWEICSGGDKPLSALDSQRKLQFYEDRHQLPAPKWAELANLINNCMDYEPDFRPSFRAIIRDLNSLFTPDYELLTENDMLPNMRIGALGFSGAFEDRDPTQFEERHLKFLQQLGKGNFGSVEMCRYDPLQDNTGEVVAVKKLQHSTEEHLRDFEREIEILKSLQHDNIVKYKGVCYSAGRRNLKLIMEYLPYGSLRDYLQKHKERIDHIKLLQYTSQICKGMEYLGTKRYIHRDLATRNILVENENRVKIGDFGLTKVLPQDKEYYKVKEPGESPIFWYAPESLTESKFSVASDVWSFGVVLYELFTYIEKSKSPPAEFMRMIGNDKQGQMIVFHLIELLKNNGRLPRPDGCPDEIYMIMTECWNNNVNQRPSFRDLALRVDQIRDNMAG
Assay: JAK tyrosine kinase inhibitory activity in the presence of 1 mM ATP (ELISA), JAK2
Type: biochemical
endpoint_label: IC50 (nM)
# unit: nM | format: bare number

CCC(=O)NC1CCN(C(=O)c2cc(N[C@@H](C)CC)nc(-c3cnn4ccsc34)n2)CC1 [Example 131]; 2200

Field: next molecule
-- ask Recorded IC50 for CN(c1cc(C(=O)N2CCC(NC(=O)C3CC3)CC2)nc(-c2cnn3ccsc23)n1)[C@H]1CCC[C@@H]1OC(F)F [Example 5] , please?
-- reply 2500
